Origin of measurements: the supplement of paper PMC10949913

Test system: CU-ACC1
Experiment: ExcessHSA synergy score with TAK-243; higher = less synergy (negative = synergistic)
Settings: combined with: TAK-243 (MLN-7243) matrix, 9-point 1:2 dilution
Each record's class is read off its ExcessHSA synergy score with TAK-243 using these ranges: label 0 = under -200, label 1 = from -200 up to 90, label 2 = 90 and over

>>> group("CSC[C@H]1CN(Cc2c[nH]c3c(N)ncnc23)C[C@@H]1O [MT-DADMe-ImmA]")
"label 0"
>>> group("Cc1nc(=O)c2cc(CN(C)c3ccc(C(=O)N[C@@H](CCC(=O)O)C(=O)O)s3)ccc2[nH]1 [Raltitrexed]")
"label 0"
>>> group("NCCCC[C@H](NC(=O)[C@@H](NC(=O)[C@H](Cc1c[nH]c2ccccc12)NC(=O)[C@H](CCCCN)NC(=O)[C@H](CCCCN)NC(=O)[C@H](Cc1c[nH]c2ccccc12)NC(=O)[C@H](Cc1c[nH]c2ccccc12)NC(=O)[C@H](CCCCN)NC(=O)[C@@H](N)CCCCN)C(c1ccccc1)c1ccccc1)C(N)=O [Oncopore]")
"label 2"
>>> group("Nc1ccn([C@@H]2O[C@H](CO)[C@@H](O)C2(F)F)c(=O)n1 [Gemcitabine]")
"label 0"
>>> group("CN1C(=O)[C@@H](NC(=O)c2n[nH]c(Cc3ccccc3)n2)COc2ccccc21")
"label 2"
>>> group("O=C(C[C@@H](C(F)F)n1ccc(F)n1)N1CCC(O)(Cn2cnc3c(cnn3-c3ccc(F)cc3)c2=O)CC1 [FT671]")
"label 1"
>>> group("Cc1cccc(CC(=O)N2CCc3c2ccc(-c2cn(C)c4ncnc(N)c24)c3F)n1")
"label 1"
>>> group("Nc1nc2[nH]cc(CCc3ccc(C(=O)N[C@@H](CCC(=O)O)C(=O)O)cc3)c2c(=O)[nH]1")
"label 2"
>>> group("CCc1cnn2c(NCc3ccc[n+]([O-])c3)cc(N3CCCC[C@H]3CCO)nc12 [Dinaciclib]")
"label 1"
>>> group("O=C(NCc1cc(F)cc(F)c1)[C@@]1(O)CCN(c2ccc3[nH]ccc3c2)C1=O [M8891]")
"label 1"
>>> group("CC(C)[C@@H](CS(=O)(=O)C(C)C)N1C(=O)[C@@](C)(CC(=O)O)C[C@H](c2cccc(Cl)c2)[C@H]1c1ccc(Cl)cc1 [AMG 232]")
"label 1"

###

System: CU-ACC1
Test: AC50 viability; higher = less potent
Conditions: 48 h
Recorded AC50 viability for the following compounds
PARAMETER MEASURED: AC50 viability

>>> recorded_result("CC(C)c1c2cc(-c3ccnc(N[C@H]4CC[C@H](NC5CCOCC5)CC4)n3)ccc2nn1C")
"0.372 µM"
>>> recorded_result("C[C@@H]\\1COC(=N1)\\NC2=CC3=C(C=C2)N=CN=C3NC4=CC(=C(OCC5=NC=CS5)C=C4)Cl")
"20.9 µM"
>>> recorded_result("COC1=C(OC)C=C\\2C(=C1)C(=O)N(CCCNCCO)\\C3=C2C(=O)C4=C3C=C5OCOC5=C4")
"5.9 µM"
>>> recorded_result("Cc1nc2cnc3ccc(C#Cc4cccnc4)cc3c2n1-c1ccc(C(C)(C)C#N)cc1")
"0.661 µM"
>>> recorded_result("CCOc1cc(C(=O)N2CCC(N3CCN(C)CC3)CC2)ccc1Nc1ncc2c(n1)N(C1CCCC1)c1ccccc1C(=O)N2C")
"18.6 µM"
>>> recorded_result("CCN1C(=O)\\C(=C/C2=C(C)N=C(N)N=C12)C3=CC=N[NH]3")
"4.17 µM"
>>> recorded_result("C[C@H](NC(=O)C(=O)Nc1ccccc1C(C)(C)C)C(=O)N[C@@H](CC(=O)O)C(=O)COc1c(F)c(F)cc(F)c1F")
"1.66 µM"
>>> recorded_result("Cn1cc(-c2ccc([S+](=O)([O-])n3ccc(/C=C/C(=O)Nc4ccccc4N)c3)cc2)cn1")
"13.2 µM"
>>> recorded_result("CNC(=O)c1cc(Oc2ccc(NC(=O)Nc3ccc(Cl)c(C(F)(F)F)c3)c(F)c2)ccn1")
"37.2 µM"
>>> recorded_result("COc1cc2c(NC3CCN(CC4CCCCC4)CC3)nc(N3CCCN(C(C)C)CC3)nc2cc1OCCCN1CCCCC1")
"20.9 µM"
>>> recorded_result("Clc1ccc(C(c2ccc(Cl)cc2)[n+]2ccn(CC(OCc3ccc(Cl)cc3Cl)c3ccc(Cl)cc3Cl)c2)cc1 (stereo not drawn)")
"13.2 µM"
>>> recorded_result("CC(C)C[C@@H](C=O)NC(=O)[C@H](CC(C)C)NC(=O)[C@H](CC(C)C)NC(=O)OCc1ccccc1")
"1.48 µM"
>>> recorded_result("CCOc1cc(CC(=O)N[C@@H](CC(C)C)c2ccccc2N2CCCCC2)ccc1C(=O)O")
"0.0059 µM"
>>> recorded_result("Cc1ccc(NC(=O)c2ccc(CN3CCNCC3)cc2)cc1Nc1nccc(-c2cccnc2)n1")
"6.61 µM"
>>> recorded_result("O=C(O)CC[C@H]1CC[C@@](c2cc(F)ccc2F)([S+](=O)([O-])c2ccc(Cl)cc2)CC1")
"0.00105 µM"
>>> recorded_result("COc1cc(OC)cc(N2CCN(C(=O)Nc3nc4cc(F)ccc4nc3OC)CC2)c1")
"23.5 µM"
>>> recorded_result("CC(C)CNc1ccnc(NCc2csc(-c3ccccc3)n2)n1")
"3.72 µM"
>>> recorded_result("Nc1ccc(F)cc1NC(=O)c1ccc(CNC(=O)/C=C/c2cccnc2)cc1")
"9.34 µM"
>>> recorded_result("NC1=C(Cl)C(=CC=N1)OC2=C(F)C=C(NC(=O)\\C3=C\\N\\C=C(C3=O)\\C4=CC=C(F)C=C4)C=C2")
"14.8 µM"
>>> recorded_result("C/C(=N\\Nc1nnc2c(n1)[nH]c1c(C)cccc12)c1ccccn1")
"2.35 µM"
>>> recorded_result("O=C(N[C@@H](c1ccccc1)[C@@H]1CCCCN1)c1cccc(C(F)(F)F)c1Cl")
"10.5 µM"
>>> recorded_result("O=C(Nc1cccnc1)N1CCC(Cc2cccc(Oc3ccc(C(F)(F)F)cn3)c2)CC1")
"5.25 µM"
>>> recorded_result("Cc1cc2cc(Oc3ccnc(Nc4cccc(C[S+](=O)([O-])NCCN(C)C)c4)n3)ccc2[nH]1")
"20.9 µM"
>>> recorded_result("CC(C)(O)CNc1ncc(-c2ccnc(Nc3ccncc3)n2)c(CC2CC2)n1")
"10.5 µM"
>>> recorded_result("CCNCCc1ccc(CN(CC)c2cc(OC)ccc2[C@@H]2CCc3cc(O)ccc3C2)cc1")
"9.34 µM"
>>> recorded_result("C[S+](=O)([O-])N1CCC(NC(=O)c2[nH]ncc2NC(=O)c2c(Cl)cccc2Cl)CC1")
"7.42 µM"
>>> recorded_result("Cc1c[nH]c(/C=C2\\C(=O)Nc3ccccc32)c1CCC(=O)O")
"0.0105 µM"
>>> recorded_result("C/C=C/C/C=C/CCC(=O)[C@H]1O[C@H]1C(N)=O")
"20.9 µM"
>>> recorded_result("CN1CC[C@H]([C@@H](O)C1)C2=C(O)C=C(O)C3=C2O\\C(=C/C3=O)C4=CC=CC=C4Cl")
"0.833 µM"
>>> recorded_result("CCCC1(CCC)CCC2(CCN(CCCN(CC)CC)C2)CC1")
"4.68 µM"
>>> recorded_result("C[C@H](NC(=O)[C@@H](O)c1cc(F)cc(F)c1)C(=O)N[C@@H]1C(=O)N(C)c2ccccc2-c2ccccc21")
"26.3 µM"
>>> recorded_result("CC(C)c1cc(CNc2nc(Nc3cc(C4CC4)[nH]n3)cc(N3CCN(C)CC3)n2)on1")
"8.33 µM"
>>> recorded_result("C[C@@H](Oc1cc(-n2cnc3ccc(CN4CCN(C)CC4)cc32)sc1C(N)=O)c1ccccc1C(F)(F)F")
"11.8 µM"

###

Tested on: NCI-H295R
Assay: area under concentration-response curve (viability) (AUC (a.u.)); higher = less active
Conditions: 48 h
PARAMETER MEASURED: area under concentration-response curve

>>> recorded_result("Cc1ccc(C(=O)OCc2ccc([C@@H](CN)C(=O)Nc3ccc4cnccc4c3)cc2)c(C)c1")
534
>>> recorded_result("C[C@]12CC[C@H]3[C@@H](CCC4=CC(=O)CC[C@@H]43)[C@@H]1CC[C@@H]2OC(=O)CCc1ccccc1")
498
>>> recorded_result("O=C(O)c1ccc(CN2CCC(CN[C@@H]3C[C@H]3c3ccccc3)CC2)cc1")
490
>>> recorded_result("O=C1NC(=O)/C(=C\\c2ccc(-c3ccc(F)cc3)o2)S1")
522
>>> recorded_result("Cn1c(CCCC(=O)O)nc2cc(N(CCCl)CCCl)ccc21")
540
>>> recorded_result("O=C1NC(=O)/C(=C/c2ccc3nccc(-c4ccncc4)c3c2)S1")
393
>>> recorded_result("CCOC(=O)[C@H](CCc1ccccc1)N[C@H]1CS[C@H](c2cccs2)CN(CC(=O)O)C1=O.Cl")
541
>>> recorded_result("Cc1[nH]c(/C=C2\\C(=O)Nc3ccc([S+](=O)([O-])Cc4c(Cl)cccc4Cl)cc32)c(C)c1C(=O)N1CCC[C@@H]1CN1CCCC1")
376
